system: mouse c-fms (Mus musculus, UniProt P09581)
Construct: Macrophage-like cell line BAC-1.2F5 which expresses c-fms as a M-CSF receptor on cell membranes; endogenous in cells
Sequence (P09581 20-977): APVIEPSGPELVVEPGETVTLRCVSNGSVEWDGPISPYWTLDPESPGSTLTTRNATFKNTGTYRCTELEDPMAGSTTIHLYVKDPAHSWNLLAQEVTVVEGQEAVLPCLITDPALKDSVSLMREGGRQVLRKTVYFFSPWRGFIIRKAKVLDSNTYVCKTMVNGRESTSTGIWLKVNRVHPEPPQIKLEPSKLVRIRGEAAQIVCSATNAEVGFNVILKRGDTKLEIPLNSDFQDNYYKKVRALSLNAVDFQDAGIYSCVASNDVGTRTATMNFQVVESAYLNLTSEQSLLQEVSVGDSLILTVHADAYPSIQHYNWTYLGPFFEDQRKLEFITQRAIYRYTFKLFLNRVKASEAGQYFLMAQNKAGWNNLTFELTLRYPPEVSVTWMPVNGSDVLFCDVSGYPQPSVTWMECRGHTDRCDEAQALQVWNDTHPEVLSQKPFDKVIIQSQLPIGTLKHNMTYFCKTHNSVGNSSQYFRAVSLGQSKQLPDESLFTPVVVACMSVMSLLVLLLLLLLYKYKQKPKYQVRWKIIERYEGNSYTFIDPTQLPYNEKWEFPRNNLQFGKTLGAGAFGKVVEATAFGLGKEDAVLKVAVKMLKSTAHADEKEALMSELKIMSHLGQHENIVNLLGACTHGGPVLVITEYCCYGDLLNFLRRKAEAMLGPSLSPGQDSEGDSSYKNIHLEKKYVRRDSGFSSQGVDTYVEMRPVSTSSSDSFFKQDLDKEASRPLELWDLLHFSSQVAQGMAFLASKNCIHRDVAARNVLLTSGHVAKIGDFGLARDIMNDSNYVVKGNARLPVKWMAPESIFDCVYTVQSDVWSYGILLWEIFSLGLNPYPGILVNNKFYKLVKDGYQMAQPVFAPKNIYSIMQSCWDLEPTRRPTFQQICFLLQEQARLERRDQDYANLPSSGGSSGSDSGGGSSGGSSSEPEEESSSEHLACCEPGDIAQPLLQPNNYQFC
test_summary: Inhibition of c-fms autophosphorylation in macrophage-like cell line BAC-1.2F5 by M-CSF stimulation (ELISA)
reported_conditions: BAC-1.2F5 cells, human recombinant M-CSF 50 ng/ml, read-out: c-fms autophosphorylation 50% inhibitory concentration (IC50)
pIC50: −log10 of the molar value.
Returns one of y or n; y when pIC50 is >= 8.

[in] Reported pIC50 reaches at least 8 for `COc1ccc([C@H](C)NC(=O)Nc2ccc(Oc3ccnc4cc(OC)c(OC)cc34)cc2)cc1` ?
[out] y

[in] Reported pIC50 reaches at least 8 for `COc1cc2nccc(Oc3ccc(NC(=O)N[C@H](C)c4cccc(Br)c4)c(C)c3C)c2cc1OC` ?
[out] n

[in] Reported pIC50 reaches at least 8 for COc1cc2nccc(Oc3ccc(NC(=O)NC(C)c4ccc(F)cc4)cc3)c2cc1OC (centres unmarked) ?
[out] y

[in] Reported pIC50 reaches at least 8 for `COc1cc2nccc(Oc3ccc(NC(=O)N[C@@H](C)c4ccc(F)cc4)c(Cl)c3)c2cc1OC` ?
[out] y

[in] Reported pIC50 reaches at least 8 for `COc1cc2nccc(Oc3ccc(NC(=O)N[C@H]4CCc5ccccc54)cc3)c2cc1OC` ?
[out] y

Now consider a different molecule.
[in] Reported pIC50 reaches at least 8 for COc1cc2nccc(Oc3ccc(NC(=O)NC(C)c4nc(C)cs4)c(F)c3)c2cc1OC (centres unmarked) ?
[out] y

---

system: Human KDR (Homo sapiens, UniProt P35968)
Sequence (P35968 20-1356): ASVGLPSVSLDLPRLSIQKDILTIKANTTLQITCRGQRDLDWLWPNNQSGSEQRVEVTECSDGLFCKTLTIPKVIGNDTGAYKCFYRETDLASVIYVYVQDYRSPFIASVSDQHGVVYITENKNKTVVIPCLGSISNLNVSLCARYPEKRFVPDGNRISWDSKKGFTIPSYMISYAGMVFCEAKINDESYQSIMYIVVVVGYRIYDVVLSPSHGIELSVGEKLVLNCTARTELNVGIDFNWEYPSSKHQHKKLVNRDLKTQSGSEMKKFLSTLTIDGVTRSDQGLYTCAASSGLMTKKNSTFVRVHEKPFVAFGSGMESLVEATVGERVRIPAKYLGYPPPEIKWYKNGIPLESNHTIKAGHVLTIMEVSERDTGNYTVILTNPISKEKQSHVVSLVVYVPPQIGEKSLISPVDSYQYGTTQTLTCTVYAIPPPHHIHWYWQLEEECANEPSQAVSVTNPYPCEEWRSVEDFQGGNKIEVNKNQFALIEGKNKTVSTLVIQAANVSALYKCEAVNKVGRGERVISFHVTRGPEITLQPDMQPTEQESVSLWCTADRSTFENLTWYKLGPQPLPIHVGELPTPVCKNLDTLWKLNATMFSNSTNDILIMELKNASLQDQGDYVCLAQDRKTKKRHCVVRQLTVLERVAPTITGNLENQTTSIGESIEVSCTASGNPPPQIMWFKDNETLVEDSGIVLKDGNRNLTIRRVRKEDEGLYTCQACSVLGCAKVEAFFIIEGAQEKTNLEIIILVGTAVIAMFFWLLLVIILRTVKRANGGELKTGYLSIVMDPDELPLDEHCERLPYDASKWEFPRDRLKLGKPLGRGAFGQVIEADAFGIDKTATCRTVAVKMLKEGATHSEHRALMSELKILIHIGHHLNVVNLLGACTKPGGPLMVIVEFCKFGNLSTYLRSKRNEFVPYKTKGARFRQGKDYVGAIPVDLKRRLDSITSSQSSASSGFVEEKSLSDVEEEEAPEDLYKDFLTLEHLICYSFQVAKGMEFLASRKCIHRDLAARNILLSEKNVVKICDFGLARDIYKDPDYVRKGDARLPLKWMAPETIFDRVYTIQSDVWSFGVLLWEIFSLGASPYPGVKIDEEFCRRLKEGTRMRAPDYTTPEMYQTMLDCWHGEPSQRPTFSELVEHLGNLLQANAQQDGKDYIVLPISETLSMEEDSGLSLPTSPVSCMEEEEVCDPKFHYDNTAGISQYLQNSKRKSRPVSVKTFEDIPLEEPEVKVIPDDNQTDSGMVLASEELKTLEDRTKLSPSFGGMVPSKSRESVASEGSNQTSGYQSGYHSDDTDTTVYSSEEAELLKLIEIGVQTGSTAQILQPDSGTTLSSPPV
test_summary: Inhibition of KDR phosphorylation in human KDR-transfected NIH3T3 cells (ELISA)
reported_conditions: human KDR-transfected NIH3T3 cells, VEGF 100 ng/ml, ELISA; read-out: KDR phosphorylation 50% inhibitory concentration (IC50)
Quick list: pIC50 per entry.
Lab note: report pIC50 as minus log10 of the concentration in molar units, number only.

[in] Fill in: pIC50 of COc1cc2nccc(Oc3cc(C)c(NC(=O)NC(C)c4nc(C)cs4)cc3C)c2cc1OC (centres unmarked) is ___
[out] 6.57

[in] Fill in: pIC50 of COc1cc2nccc(Oc3ccc(NC(=O)NC(C)c4nc(C)cs4)cc3)c2cc1OC (centres unmarked) is ___
[out] 7.54

[in] Fill in: pIC50 of `COc1ccc([C@@H](C)NC(=O)Nc2ccc(Oc3ccnc4cc(OC)c(OC)cc34)cc2)cc1` is ___
[out] 6.24

[in] Fill in: pIC50 of `COc1cc2nccc(Oc3ccc(NC(=O)N[C@H](C)c4cccc(Br)c4)c(Cl)c3)c2cc1OC` is ___
[out] 8.80

[in] Fill in: pIC50 of `COc1cc2nccc(Oc3ccc(NC(=O)N[C@H](C)c4nccs4)cc3OC)c2cc1OC` is ___
[out] 6.19

[in] Fill in: pIC50 of `COc1cc2nccc(Oc3ccc(NC(=O)N[C@H](C)c4ccc(F)cc4)c(C(F)(F)F)c3)c2cc1OC` is ___
[out] 8.68

[in] Fill in: pIC50 of `COc1cc2nccc(Oc3ccc(NC(=O)N[C@H](C)c4cccc(Br)c4)cc3Cl)c2cc1OC` is ___
[out] 8.44

The record that follows has no pIC50 shown yet.
[in] Fill in: pIC50 of `COc1cc2nccc(Oc3ccc(NC(=O)N[C@H](C)c4cccc(Br)c4)c(C)c3)c2cc1OC` is ___
[out] 8.68

---

system: Human KDR (Homo sapiens, UniProt P35968)
Construct: expressed in transfected cells; host or cells: NIH3T3 cells (mouse fibroblasts)
test_summary: Inhibition of KDR phosphorylation in human KDR-transfected NIH3T3 cells (ELISA)
Assay type: cell-based
reported_conditions: class 0-3
Method: Human KDR-transfected NIH3T3 cells (Sawano A et al., Cell Growth & Differentiation, 7, 213-221 (1996)) were cultured in a DMEM medium containing 10% fetal calf serum (purchased from GIBCO BRL) within a 5% carbon dioxide incubator until 50 to 70% confluent. The harvested cells were seeded into wells, containing the same medium, in a collagen type 1 coat 96-well flat-bottom plate in an amount of 1.5×10^4 per well, and cultured at 37° C. overnight. […]
recorded_endpoint: Selection ratio (KDR phosphorylation IC50 / c-fms phosphorylation IC50)

Consider the worked cases shown below.
[in] Lab note: need Selection ratio (KDR phosphorylation IC50 / c-fms phosphorylation IC50) for COc1cc2nccc(Oc3ccc(NC(=O)N[C@@H](C)c4ccc(F)cc4)c(C)c3)c2cc1OC [Example 14] on Human KDR (Homo sapiens, UniProt P35968), anyone have it?
[out] 1 (when the value was 5 or more)

[in] Lab note: need Selection ratio (KDR phosphorylation IC50 / c-fms phosphorylation IC50) for COc1cc2nccc(Oc3ccc(NC(=O)N[C@@H](C)c4ccccc4OC)cc3)c2cc1OC [Example 51] on Human KDR (Homo sapiens, UniProt P35968), anyone have it?
[out] 1 (when the value was 5 or more)

[in] Lab note: need Selection ratio (KDR phosphorylation IC50 / c-fms phosphorylation IC50) for COc1cc2nccc(Oc3ccc(NC(=O)N[C@@H](C)c4nccs4)c(F)c3)c2cc1OC [Example 71] on Human KDR (Homo sapiens, UniProt P35968), anyone have it?
[out] 2 (when the value was 10 or more)

[in] Lab note: need Selection ratio (KDR phosphorylation IC50 / c-fms phosphorylation IC50) for COc1cc2nccc(Oc3ccc(NC(=O)N[C@@H](C)c4ccc([N+](=O)[O-])cc4)cc3)c2cc1OC [Example 35] on Human KDR (Homo sapiens, UniProt P35968), anyone have it?
[out] 2 (when the value was 10 or more)

[in] Lab note: need Selection ratio (KDR phosphorylation IC50 / c-fms phosphorylation IC50) for COc1cc2nccc(Oc3cc(C)c(NC(=O)N[C@@H](C)c4ccc(F)cc4)cc3C)c2cc1OC [Example 8] on Human KDR (Homo sapiens, UniProt P35968), anyone have it?
[out] 2 (when the value was 10 or more)

The record that follows has no Selection ratio (KDR phosphorylation IC50 / c-fms phosphorylation IC50) shown yet.
[in] Lab note: need Selection ratio (KDR phosphorylation IC50 / c-fms phosphorylation IC50) for COc1cc2nccc(Oc3ccc(NC(=O)N[C@@H](C)c4ccc(F)cc4)cc3OC)c2cc1OC [Example 23] on Human KDR (Homo sapiens, UniProt P35968), anyone have it?
[out] 3 (when the value was 50 or more)

---

system: Human KDR (Homo sapiens, UniProt P35968)
Construct: expressed in transfected cells; host or cells: NIH3T3 cells (mouse fibroblasts)
test_summary: Inhibition of KDR phosphorylation in human KDR-transfected NIH3T3 cells (ELISA)
Assay type: cell-based
reported_conditions: class 0-3
Quick list: Selection ratio (KDR phosphorylation IC50 / c-fms phosphorylation IC50) per entry.

Consider the worked cases shown below.
[in] Fill in: Selection ratio (KDR phosphorylation IC50 / c-fms phosphorylation IC50) of COc1cc2nccc(Oc3ccc(NC(=O)NC(C)c4nc(C)cs4)cc3)c2cc1OC (stereo not shown) is ___
[out] 1 (when the value was 5 or more)

[in] Fill in: Selection ratio (KDR phosphorylation IC50 / c-fms phosphorylation IC50) of `COc1cc2nccc(Oc3cc(C)c(NC(=O)N[C@@H](C)c4nccs4)cc3C)c2cc1OC` is ___
[out] 2 (when the value was 10 or more)

[in] Fill in: Selection ratio (KDR phosphorylation IC50 / c-fms phosphorylation IC50) of COc1cc2nccc(Oc3ccc(NC(=O)NC(C)c4nccs4)cc3F)c2cc1OC (stereo not shown) is ___
[out] 2 (when the value was 10 or more)

[in] Fill in: Selection ratio (KDR phosphorylation IC50 / c-fms phosphorylation IC50) of COc1cc2nccc(Oc3ccc(NC(=O)NC(C)c4ncc(C)s4)cc3F)c2cc1OC (stereo not shown) is ___
[out] 2 (when the value was 10 or more)

[in] Fill in: Selection ratio (KDR phosphorylation IC50 / c-fms phosphorylation IC50) of COc1cc(Oc2ccnc3cc(OC)c(OC)cc23)ccc1NC(=O)NC(C)c1ncc(C)s1 (stereo not shown) is ___
[out] 2 (when the value was 10 or more)

---
[in] Fill in: Selection ratio (KDR phosphorylation IC50 / c-fms phosphorylation IC50) of COc1cc2nccc(Oc3ccc(NC(=O)NC(C)c4ncc(C)s4)c(F)c3)c2cc1OC (stereo not shown) is ___
[out] 2 (when the value was 10 or more)

[in] Fill in: Selection ratio (KDR phosphorylation IC50 / c-fms phosphorylation IC50) of `COc1cc2nccc(Oc3ccc(NC(=O)N[C@H](C)c4nccs4)cc3OC)c2cc1OC` is ___
[out] 3 (when the value was 50 or more)

[in] Fill in: Selection ratio (KDR phosphorylation IC50 / c-fms phosphorylation IC50) of `COc1cc2nccc(Oc3ccc(NC(=O)N[C@H](C)c4nccs4)cc3)c2cc1OC` is ___
[out] 2 (when the value was 10 or more)
